test: in vivo; conditions: rat, po, 5 mg/kg

{"compound": "O=C(c1ccc(OCCN2CCCCC2)cc1)c1c(-c2ccc(O)cc2)sc2cc(O)ccc12 [RALOXIFENE]", "bioavailability / %": 93}
{"compound": "Cc1cc(C(=O)CNc2c(-c3ccc(O)cc3)c(=O)oc3cc(O)ccc23)ccc1OCCN1CCC=C(C(=O)O)C1", "bioavailability / %": 91}
{"compound": "Nc1ccc(-c2c(C(=O)c3ccc(OCCN4CC(C(=O)O)=CCC4=O)cc3)c3ccc(O)cc3[nH]c2=O)cc1", "bioavailability / %": 88}
{"compound": "Nc1ccc(-c2c(C(=O)c3ccc(OCCNS(=O)(=O)O)cc3)c3ccc(O)cc3oc2=O)cc1", "bioavailability / %": 91}
{"compound": "CC/C(=C(\\c1ccc(O)cc1)c1ccc(OCCN(C)C)cc1)c1ccccc1 [AFIMOXIFENE]", "bioavailability / %": 87}
